Biological target: T1, ZFP SBS#1498 (synthetic)
T1 chain: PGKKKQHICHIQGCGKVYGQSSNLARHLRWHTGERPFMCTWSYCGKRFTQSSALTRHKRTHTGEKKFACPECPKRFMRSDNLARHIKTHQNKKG
Assay: EMSA
Details: tags: MBP fusion
endpoint: Kd (nM)

>  <binder>
GAGGTTGAT (dsDNA) DNA 1: GAGGTTGAT DNA 2: ATCAACCTC

>  <experimental.result>
0.101

$$$$
